Cited source for all entries: ChEMBL document CHEMBL1135602

Test System: Bifunctional dihydrofolate reductase-thymidylate synthase (Plasmodium falciparum K1) (UniProt P13922)
Sequence (P13922 whole entry, looked up): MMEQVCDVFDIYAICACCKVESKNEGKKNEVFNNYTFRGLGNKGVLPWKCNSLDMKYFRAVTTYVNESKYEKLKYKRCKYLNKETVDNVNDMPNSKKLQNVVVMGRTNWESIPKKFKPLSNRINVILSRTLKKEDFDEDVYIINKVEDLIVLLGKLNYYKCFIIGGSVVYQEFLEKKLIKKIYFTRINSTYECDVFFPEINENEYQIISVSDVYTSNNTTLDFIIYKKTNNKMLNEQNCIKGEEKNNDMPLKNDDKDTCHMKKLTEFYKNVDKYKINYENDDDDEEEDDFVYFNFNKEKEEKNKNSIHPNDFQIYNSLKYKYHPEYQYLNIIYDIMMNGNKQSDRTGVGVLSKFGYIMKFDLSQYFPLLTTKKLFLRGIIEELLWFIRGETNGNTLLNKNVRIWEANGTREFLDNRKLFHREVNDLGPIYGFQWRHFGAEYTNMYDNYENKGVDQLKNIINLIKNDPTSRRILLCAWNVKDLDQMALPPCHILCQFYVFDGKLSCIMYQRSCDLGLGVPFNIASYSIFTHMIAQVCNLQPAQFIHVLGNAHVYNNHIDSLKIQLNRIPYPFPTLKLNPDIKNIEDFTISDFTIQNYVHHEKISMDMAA
Test Method Notes: Inhibition of the wild-type dihydrofolate reductase (DHFR) relative to Pyr.
Relative activity vs 2: at or above is MET, below is NOT MET.

                       smiles_structure  answer_label
0         CCc1nc(N)nc(N)c1-c1ccc(Br)cc1       NOT MET
1  CCc1nc(N)nc(N)c1-c1ccc(-c2ccccc2)cc1           MET
2          CCc1nc(N)nc(N)c1-c1ccc(C)cc1       NOT MET
3   CCc1nc(N)nc(N)c1-c1ccc(C(C)(C)C)cc1       NOT MET
4             CCc1nc(N)nc(N)c1-c1ccccc1           MET
5         CCc1nc(N)nc(N)c1-c1ccc(OC)cc1       NOT MET

* * *

Test Method Notes: Safety ratio is cytotoxicity to BC cells/IC50 K1.
Assay type: toxicity, cell-based
Recorded Conditions: human, BC cells (breast cancer); read-out: Safety ratio
Reported Endpoint: selectivity ratio

In [3]: df
Out[3]:
                       smiles_structure  test_value
0         CCCCCCc1nc(N)nc(N)c1-c1ccccc1         206
1  Nc1nc(N)c(-c2ccccc2)c(CCCc2ccccc2)n1       > 217
2   CCc1nc(N)nc(N)c1-c1ccc(C(C)(C)C)cc1        14.4
3             CCc1nc(N)nc(N)c1-c1ccccc1       > 151

* * *

Test Method Notes: Safety ratio is cytotoxicity to BC cells/IC50 TM4.
Type: toxicity, cell-based
Recorded Conditions: human, BC cells (breast cancer); read-out: Safety ratio
# Lookup of reported selectivity ratio keyed by entry
Reported Endpoint: selectivity ratio

>>> df
                           smiles_structure  reported_endpoint  value_qualifier  test_value
0       CCc1nc(N)nc(N)c1-c1ccc(C(C)(C)C)cc1  selectivity ratio                =        93.3
1                 CCc1nc(N)nc(N)c1-c1ccccc1  selectivity ratio                >         714
2      Nc1nc(N)c(-c2ccccc2)c(CCCc2ccccc2)n1  selectivity ratio                >        2500
3  Nc1nc(N)c(-c2cccc(Cl)c2)c(CCOCCCOc2ccccc2)n1  selectivity ratio                =          15
4             CCCCCCc1nc(N)nc(N)c1-c1ccccc1  selectivity ratio                =        4470
5     COc1cc(Cc2cnc(N)nc2N)ccc1OCCCc1ccccc1  selectivity ratio                =          11

* * *

Test System: Bifunctional dihydrofolate reductase-thymidylate synthase (Plasmodium falciparum K1, UniProt P13922, S108N)
Sequence (P13922 whole entry, looked up, stated change not applied): as the sequence (P13922 whole entry, looked up) above
Test Method Notes: Inhibition of the S108N mutant of dihydrofolate reductase (DHFR)
pKi: −log10 of the molar value.
Reported Endpoint: pKi

In [3]: df
Out[3]:
                           smiles_structure  reported_endpoint  test_value
0              CCc1nc(N)nc(N)c1-c1ccc(C)cc1                pKi        7.97
1     COC(=O)CCCc1nc(N)nc(N)c1-c1cccc(Cl)c1                pKi        8.77
2      Nc1nc(N)c(-c2ccccc2)c(CCCc2ccccc2)n1                pKi        9.05
3             CCc1nc(N)nc(N)c1-c1cccc(Cl)c1                pKi        8.80
4              Cc1nc(N)nc(N)c1-c1cccc(Cl)c1                pKi        8.49
5  COc1ccc(CCCc2nc(N)nc(N)c2-c2cccc(Cl)c2)cc1                pKi        8.40

* * *

# Lookup of reported pKi keyed by entry
Test System: Dihydrofolate reductase (Homo sapiens, UniProt P00374)
Sequence (P00374 whole entry): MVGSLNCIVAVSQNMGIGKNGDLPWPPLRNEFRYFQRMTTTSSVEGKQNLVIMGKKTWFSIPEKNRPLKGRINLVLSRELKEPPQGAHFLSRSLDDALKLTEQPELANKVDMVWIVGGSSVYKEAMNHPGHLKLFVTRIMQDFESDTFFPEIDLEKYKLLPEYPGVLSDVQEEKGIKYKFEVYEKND
Test Method Notes: Cytotoxicity by selective inhibition against human dihydrofolate reductase (DHFR).
pKi: −log10 of the molar value.
Reported Endpoint: pKi

>>> print(df.to_string())
                           smiles_structure  reported_endpoint  value_qualifier  test_value
0             CCCCCCc1nc(N)nc(N)c1-c1ccccc1                pKi                =        4.82
1  COc1ccc(CCCc2nc(N)nc(N)c2-c2cccc(Cl)c2)cc1                pKi                <        5.30

* * *

Test system: Bifunctional dihydrofolate reductase-thymidylate synthase (Plasmodium falciparum K1), P13922 [UNDEFINED MUTATION]
Sequence (P13922 whole entry, looked up, stated change not applied): as the sequence (P13922 whole entry, looked up) above
Test Method Notes: Ratio of Inhibition of the C59R+S108N mutant of dihydrofolate reductase (DHFR) to inhibition of wild type dihydrofolate reductase.
Reported Endpoint: Ratio

In [3]: df
Out[3]:
                                    compound  test_value
 0     COC(=O)CCCc1nc(N)nc(N)c1-c1ccc(Cl)cc1        91.3
 1  COc1ccc(CCCc2nc(N)nc(N)c2-c2cccc(Cl)c2)cc1         2.7
 2              Cc1nc(N)nc(N)c1-c1cccc(Cl)c1         1.6
 3  Nc1nc(N)c(-c2ccc(Cl)cc2)c(CCCc2ccccc2)n1        33.3
 4      CCOc1c(Br)cc(-c2c(N)nc(N)nc2CC)cc1Br        76.3
 5  CCc1nc(N)nc(N)c1-c1ccc(Cl)c(Cl)c1 [ETOPRINE]        12.6
 6  Nc1nc(N)c(-c2cccc(Cl)c2)c(CCCc2ccccc2)n1         3.5
 7              CCc1nc(N)nc(N)c1-c1ccc(C)cc1        36.8
 8  Nc1nc(N)c(-c2cccc(Cl)c2)c(CCOCCCOc2ccccc2)n1         4.7
 9                 CCc1nc(N)nc(N)c1-c1ccccc1         3.8
10                  Cc1nc(N)nc(N)c1-c1ccccc1         3.4
11     COc1cc(Cc2cnc(N)nc2N)ccc1OCCCc1ccccc1        24.5
12          CCc1nc(N)nc(N)c1-c1ccc2c(c1)OCO2        31.5
13      CCc1nc(N)nc(N)c1-c1ccc(-c2ccccc2)cc1         3.9
14              Cc1nc(N)nc(N)c1-c1ccc(Cl)cc1          71
15             CCc1nc(N)nc(N)c1-c1ccc(Br)cc1         148

* * *

Test System: Bifunctional dihydrofolate reductase-thymidylate synthase (Plasmodium falciparum K1) (UniProt P13922)
Test Method Notes: Inhibition of Plasmodium falciparum wild-type dihydrofolate reductase (DHFR) relative to Pyrimethamine.
Relative activity vs 1: at or above is Yes, below is No.

                            smiles_structure  answer_label
 0      Nc1nc(N)c(-c2ccccc2)c(CCCc2ccccc2)n1            No
 1     COC(=O)CCCc1nc(N)nc(N)c1-c1cccc(Cl)c1            No
 2     COC(=O)CCCc1nc(N)nc(N)c1-c1ccc(Cl)cc1            No
 3         CCc1nc(N)nc(N)c1-c1ccc(Cl)c(Cl)c1           Yes
 4              Cc1nc(N)nc(N)c1-c1cccc(Cl)c1           Yes
 5  Nc1nc(N)c(-c2ccc(Cl)cc2)c(CCCc2ccccc2)n1           Yes
 6                   Nc1ncc(-c2ccccc2)c(N)n1           Yes
 7             CCc1nc(N)nc(N)c1-c1cccc(Cl)c1           Yes
 8              Cc1nc(N)nc(N)c1-c1ccc(Cl)cc1           Yes
 9  Nc1nc(N)c(-c2cccc(Cl)c2)c(CCCc2ccccc2)n1           Yes
10  Nc1nc(N)c(-c2cccc(Cl)c2)c(CCOCCCOc2ccccc2)n1            No
11               Nc1ncc(-c2ccc(Cl)cc2)c(N)n1           Yes
12               Nc1ncc(-c2cccc(Cl)c2)c(N)n1           Yes
13      CCOc1c(Br)cc(-c2c(N)nc(N)nc2CC)cc1Br           Yes
14             CCCCCCc1nc(N)nc(N)c1-c1ccccc1            No
15                  Cc1nc(N)nc(N)c1-c1ccccc1           Yes
16  COc1ccc(CCCc2nc(N)nc(N)c2-c2cccc(Cl)c2)cc1           Yes
17           CCc1nc(N)nc(N)c1-c1ccc(Cl)cc1Cl           Yes
18          CCc1nc(N)nc(N)c1-c1ccc2c(c1)OCO2           Yes
